# TEST SUMMARY: Half life in rat brain at 5 mg/kg, ip
# Type: ADME, organism-based

# GIVEN SMILES, UNITS SYMBOL, half-life
rows = [
    ("C[C@H](Nc1c(-c2c(F)cc(OCCCO)cc2F)c(Cl)nc2ncnn12)C(F)(F)F", "h", 7),
]
